Molecular target: human CD33 (human, UniProt P20138 18-364)
Sequence (P20138 18-364): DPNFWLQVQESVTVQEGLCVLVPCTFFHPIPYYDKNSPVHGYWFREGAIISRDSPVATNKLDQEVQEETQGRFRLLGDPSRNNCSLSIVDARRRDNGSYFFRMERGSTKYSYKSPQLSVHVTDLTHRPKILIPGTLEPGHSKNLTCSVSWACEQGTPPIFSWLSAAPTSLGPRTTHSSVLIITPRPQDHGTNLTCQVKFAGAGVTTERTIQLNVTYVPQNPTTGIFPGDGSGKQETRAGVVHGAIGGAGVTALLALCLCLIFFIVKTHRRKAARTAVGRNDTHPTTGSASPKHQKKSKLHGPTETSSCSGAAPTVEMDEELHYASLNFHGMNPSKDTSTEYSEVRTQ
Experiment: cell-based or functional assay
observed_property: Percent CD33 Surface Expression, Macrophage % CD33 (%)

binder | meas_value
C-9 (antibody, V domains shown, human IgG1) VH: QLQLQESGPGLVKPSETLSLTCTVSGGSISSSSYYWGWIRQPPGKGLEWIGSIYYSGSTYYNPSLKSRVTISVDTSKNQFSLKLSSVTAADTAVYYCARESGFAGLDPWGQGTLVTVSS VL: EIVLTQSPGTLSLSPGERATLSCRASQSVSSSFLAWYQQKPGQAPRLLIYGASSRATGIPDRFSGSGSGTDFTLTISRLEPEDFAVYYCQQSEDWPTFGGGTKVEIK | 63.4
C-87 (antibody, V domains shown, human IgG1) VH: QLQLQESGPGLVKPSETLSLTCTVSGGSISSSSYAWGWIRQPPGKGLEWIGSIYYSGSTYYNPSLKSRVTISVDTSKNQFSLKLSSVTAADTAVYYCARDPLYPLTPYGMDVWGQGTTVTVSS VL: EIVMTQSPATLSLSPGERATLSCRASQSVSSYLAWYQQKPGQAPRLLIYDASNRATGIPARFSGSGSGTDFTLTISSLEPEDFAVYYCQQLSVFPPTFGGGTKVEIK | 47.5
C-11 (antibody, V domains shown, human IgG1) VH: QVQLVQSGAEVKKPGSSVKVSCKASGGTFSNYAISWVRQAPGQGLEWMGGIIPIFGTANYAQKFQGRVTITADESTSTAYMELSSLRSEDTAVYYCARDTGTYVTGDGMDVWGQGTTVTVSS VL: EIVMTQSPATLSVSPGERATLSCRASQSVSSNLAWYQQKPGQAPRLLIYSASTRATGIPARFSGSGSGTEFTLTISSLQSEDFAVYYCQQYIVLPITFGGGTKVEIK | 64.3
